Target: Cellular tumor antigen p53 (Homo sapiens)
Assay: nuclear p53 accumulation, HPV+ cells – imaging, p53-positive nuclei imaging, 24 h, 48 h (AID 1508601)
Conditions: 24/48 h, stronger effect = higher value, concentration not given here
The whole screen tested about 5,700 compounds, of which about 85 (1%) were called active. Shown is part of a subset that was picked to be rich in actives.
This listing pairs compounds with measured p53-positive nuclei, normalised.
Your answer should be a plain number; it is taken to be in %.

Use the examples below as a reference point.
INSERT INTO results (compound_structure, recorded_endpoint, units_label, value_observed) VALUES
  ('CCCCC[C@H](O)/C=C/[C@@H]1[C@@H](C/C=C\CCCC(=O)NCC)[C@@H](O)C[C@H]1O', 'p53-positive nuclei, normalised', '%', 0.015),
  ('O=C(OC[C@@H]1O[C@H]1c1ccccc1)Oc1ccc([N+](=O)[O-])cc1', 'p53-positive nuclei, normalised', '%', -0.0534),
  ('CCCCC[C@H](O)/C=C/[C@@H]1[C@H](CCCCCCC(=O)O)[C@H](O)C[C@H]1O', 'p53-positive nuclei, normalised', '%', -0.142),
  ('O=C(/C=C/c1cccc(C(=O)NO)c1)NO', 'p53-positive nuclei, normalised', '%', 0.114),
  ('CCCCCCCCCCCCCCP(=O)(O)O', 'p53-positive nuclei, normalised', '%', -0.0194);

What measured p53-positive nuclei, normalised goes with `O=S(=O)(NO)c1ccccc1` ?
0.0111

Subsequent entry: `O=C1CN(c2ncnc3sccc23)CCN1Cc1ccc(F)cc1`
-0.087

Subsequent entry: `Cc1occc1C(=O)Nc1ccccc1C(=O)N(C)Cc1ccccn1`
0.23

----------
Assay: nuclear p53 accumulation, HPV+ cells – imaging, p53-positive nuclei imaging, 24 h, 48 h (AID 1508601)
Settings: 24/48 h, measured here: cell number at 48 h, Library stock concentration: 10 mM
Among all 5,700 compounds or so, about 85 (1%) were called active. For the sample, actives were picked, then their nearest neighbours and some compounds at random. Peptide text beside a SMILES is read from it. * marks the point of attachment. Cbz = O=C(OCc1ccccc1)*
This listing pairs compounds with measured nuclei count, normalised.
Your answer should be a plain number; it is taken to be in %.

Use the examples below as a reference point.
INSERT INTO measurements (compound, recorded_endpoint, units_label, value_observed) VALUES
  ('C#C[C@]1(O)CC[C@@H]2[C@@H]3CCc4cc(O)ccc4[C@@H]3CC[C@@]21C', 'nuclei count, normalised', '%', 30.5),
  ('O=C(Nc1ccc(-c2ccnc(Nc3ccc(N4CCOCC4)cc3)n2)cc1)C1CCCN1 (centres undefined)', 'nuclei count, normalised', '%', 101);

What measured nuclei count, normalised goes with CC(=O)NC(CC(C)C)C(=O)NC(CC(C)C)C(=O)NC(C=O)CCCN=C(N)N (centres undefined) ?
72.9

Subsequent entry: `O=C1CC(c2ccc([N+](=O)[O-])cc2)=NN1c1ccccc1`
106

Subsequent entry: O=C(NOCC(O)CO)c1ccc(F)c(F)c1Nc1ccc(I)cc1F (centres undefined)
95.8

Subsequent entry: CC(C)CC(C=O)NC(=O)C(CC(C)C)NC(=O)C(CC(C)C)NC(=O)OCc1ccccc1 (stereo not drawn) (Cbz-Leu-Leu-Leu-aldehyde; configuration not given here)
46.7

Subsequent entry: `Fc1cc(-c2ccnc(Nc3ccc(-n4cnc(N5CCOCC5)n4)cc3)n2)cc(N2CCOCC2)c1`
21.7

Subsequent entry: `C#CCOc1ccc2c(c1)c(-c1ccc(C(C)C)cc1)nc(=O)n2C(C)C`
101

Subsequent entry: `O=C(O)C=Cc1ccc(Cn2ccnc2)cc1`
103

----------
Target: Cellular tumor antigen p53 (Homo sapiens)
Test: nuclear p53 accumulation, HPV+ cells – imaging, p53-positive nuclei imaging, 24 h, 48 h (AID 1508601)
Conditions: 24/48 h, measured here: p53 positive nuclei at 24 h, Library stock concentration: 4.6 uM, stronger effect = higher value
About 85 (1%) of roughly 5,700 compounds were called active. The sample as a whole holds a higher share of actives than the screen did.
This listing pairs molecules with measured p53-positive nuclei, normalised.
Your answer should be a plain number; it is taken to be in %.

Use the examples below as a reference point.
INSERT INTO measurements (molecule, units_label, value_observed) VALUES
  ('CC(=O)OC1C(=O)[C@]2(C)C(O)CC3OC[C@@]3(OC(C)=O)C2C(OC(=O)c2ccccc2)[C@]2(O)CC(OC(=O)C(O)C(NC(=O)c3ccccc3)c3ccccc3)C(C)=C1C2(C)C (stereo partly specified)', '%', 1.13),
  ('COc1ccc(N2C(=O)C(=Cc3ccc([N+](=O)[O-])s3)SC2=S)cc1', '%', 0.0046),
  ('Nc1ccn(C2OC(CO)C(O)C2F)c(=O)n1 (stereo unspecified)', '%', 0.0647),
  ('CN(C)CCC(CSc1ccccc1)Nc1ccc(S(=O)(=O)NC(=O)c2ccc(N3CCN(Cc4ccccc4-c4ccc(Cl)cc4)CC3)cc2)cc1[N+](=O)[O-] (stereo unspecified)', '%', -0.00335);

Now consider the entry below.
What measured p53-positive nuclei, normalised goes with C=C1C(=O)OC(CCCCCCCC)C1C(=O)O (stereo unspecified) ?
-0.0584

----------
This listing pairs molecules with measured nuclei count, normalised.
Test: nuclear p53 accumulation, HPV+ cells – imaging, p53-positive nuclei imaging, 24 h, 48 h (AID 1508601)
Settings: 24/48 h, measured here: cell number at 48 h, Library stock concentration: 80 uM
Out of some 5,700 compounds screened, about 85 (1%) were called active. The full list was thinned out, with actives kept by preference.
Your answer should be a plain number; it is taken to be in %.

INSERT INTO assay_data (compound_structure, value_observed) VALUES
  ('C=CC(=O)N1CCc2ccc(-n3c(=O)ccc4cnc5ccc(-c6cnn(C)c6)cc5c43)cc21', 108),
  ('CCN1CCN(Cc2ccc(Nc3ncc4c(n3)N(C)c3ccccc3C(=O)N4C)cc2C(F)(F)F)CC1', 81.7),
  ('CS(=O)(=O)c1cccc(CNc2nc(Nc3ccc4c(c3)CCC(=O)N4)ncc2C(F)(F)F)c1', 115),
  ('O=C1NCCCc2c1oc1ccc(O)cc21', 104);

Now consider the entry below.
What measured nuclei count, normalised goes with `CCCCc1ccc(N=CNO)c(C)c1` ?
102

----------
Target: Cellular tumor antigen p53 (Homo sapiens)
Assay: nuclear p53 accumulation, HPV+ cells – imaging, p53-positive nuclei imaging, 24 h, 48 h (AID 1508601)
Details: 24/48 h, Library stock concentration: 3.33 mM
About 85 (1%) of roughly 5,700 compounds were called active. Rule as the data show it: active = p53-positive nuclei above about 36% (passing the limit was not always enough); inactive = the rest. Many of the other results were omitted from the sample, so actives are more common in it than they were.
Outcome (select one): active, inactive

Look over these answered cases.
INSERT INTO measurements (compound, assigned_label) VALUES
  ('O=C(O)c1ccccc1', 'inactive'),
  ('COc1ccc(-c2nc(N3CCOCC3)c3sc(CN(C)c4ncc(C(=O)NO)cn4)cc3n2)cn1', 'active'),
  ('Cc1c(CN2CCN(C(=O)C(C)O)CC2)sc2c(N3CCOCC3)nc(-c3cnc(N)nc3)nc12 (stereo not given)', 'inactive');

Hi, do you know how CCN(CC)C(=O)[C@]1(c2ccccc2)CC1CN (stereo not given in full) came out in this test?
inactive

Subsequent entry: `O=C(O)CCNC(=O)c1ccccc1`
inactive

Subsequent entry: CCc1cnn2c(NCc3ccc[n+]([O-])c3)cc(N3CCCCC3CCO)nc12 (stereo not given)
inactive

Subsequent entry: `CN(NC(=O)CC(=O)NN(C)C(=S)c1ccccc1)C(=S)c1ccccc1`
active

Subsequent entry: `O=C1CN2Cc3c(ccc(Cl)c3Cl)N=C2N1`
active

Subsequent entry: `CS(=O)(=O)N1CCN(Cc2cc3nc(-c4cccc5[nH]ncc45)nc(N4CCOCC4)c3s2)CC1`
inactive

Subsequent entry: CC(=O)OC1C(=O)[C@]2(C)C(O)CC3OC[C@@]3(OC(C)=O)C2C(OC(=O)c2ccccc2)[C@]2(O)CC(OC(=O)C(O)C(NC(=O)c3ccccc3)c3ccccc3)C(C)=C1C2(C)C (stereo not given in full)
inactive

----------
Target: Cellular tumor antigen p53 (Homo sapiens) (UniProt P04637)
Sequence (P04637 whole entry, looked up): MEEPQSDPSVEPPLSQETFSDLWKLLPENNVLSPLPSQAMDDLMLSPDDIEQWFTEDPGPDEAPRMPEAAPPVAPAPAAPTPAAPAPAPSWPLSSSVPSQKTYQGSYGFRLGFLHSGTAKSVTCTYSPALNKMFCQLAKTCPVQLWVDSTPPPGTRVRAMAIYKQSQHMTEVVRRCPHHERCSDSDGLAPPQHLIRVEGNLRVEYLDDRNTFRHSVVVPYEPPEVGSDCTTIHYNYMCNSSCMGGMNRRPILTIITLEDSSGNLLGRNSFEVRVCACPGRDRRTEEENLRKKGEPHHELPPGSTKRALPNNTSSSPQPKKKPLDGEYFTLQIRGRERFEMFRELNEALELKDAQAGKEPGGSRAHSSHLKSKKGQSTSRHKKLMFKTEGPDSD
Assay: nuclear p53 accumulation, HPV+ cells – imaging, p53-positive nuclei imaging, 24 h, 48 h (AID 1508601)
Conditions: 24/48 h, Library stock concentration: 41 uM, stronger effect = higher value
Screen size: about 5,700 compounds; about 85 (1%) were called active. The sample as a whole holds a higher share of actives than the screen did.
recorded_endpoint: p53-positive nuclei, normalised (%)
Your answer should be a plain number; it is taken to be in %.

Use the examples below as a reference point.
INSERT INTO assay_data (compound, value_observed) VALUES
  ('C=C1C(=O)OC(CCCCCCCC)C1C(=O)O (stereo not given)', 0.00899),
  ('COc1ccc(N2C(=O)C(=Cc3ccc([N+](=O)[O-])s3)SC2=S)cc1', 0.353),
  ('OCC1OC(n2cnc3c2NC=NCC3O)CC1O (stereo not given)', 0.0195),
  ('CC(=O)NC(CSC(=S)NSc1ccc(SNC(=S)SCC(NC(C)=O)C(=O)O)cc1)C(=O)O (stereo not given)', -0.00296),
  ('OC(c1cc(C(F)(F)F)nc2c(C(F)(F)F)cccc12)[C@H]1CCCCN1 (stereo not given in full)', -0.185),
  ('CN(NC(=O)CC(=O)NN(C)C(=S)c1ccccc1)C(=S)c1ccccc1', 5.45),
  ('CC(=O)OC1C(=O)[C@]2(C)C(O)CC3OC[C@@]3(OC(C)=O)C2C(OC(=O)c2ccccc2)[C@]2(O)CC(OC(=O)C(O)C(NC(=O)c3ccccc3)c3ccccc3)C(C)=C1C2(C)C (stereo not given in full)', 2.36),
  ('Nc1ccn(C2OC(CO)C(O)C2F)c(=O)n1 (stereo not given)', 0.839);

What measured p53-positive nuclei, normalised goes with `CCOC(=O)c1sc(NC(=O)c2ccco2)c(SC#N)c1C` ?
0.07

Subsequent entry: `N#CSc1cc(SC#N)c(N)nc1N`
0.227
